target: ZNF721 full-length (Homo sapiens, UniProt Q8TF20-2 1-923); assay: HT-SELEX; 20 mM HEPES pH 7, 140 mM KCl, 5 mM NaCl, 1 mM K2HPO4, 2 mM MgSO4, 100 uM EGTA, ZnSO4, 0.1% Tween20; room temperature, 1 h; high values mean tight binding; settings: protein: ivt; tags: eGFP (N-terminal); dsDNA, one strand shown
Sequence (Q8TF20 other isoform, or with tags, fused parts or gaps): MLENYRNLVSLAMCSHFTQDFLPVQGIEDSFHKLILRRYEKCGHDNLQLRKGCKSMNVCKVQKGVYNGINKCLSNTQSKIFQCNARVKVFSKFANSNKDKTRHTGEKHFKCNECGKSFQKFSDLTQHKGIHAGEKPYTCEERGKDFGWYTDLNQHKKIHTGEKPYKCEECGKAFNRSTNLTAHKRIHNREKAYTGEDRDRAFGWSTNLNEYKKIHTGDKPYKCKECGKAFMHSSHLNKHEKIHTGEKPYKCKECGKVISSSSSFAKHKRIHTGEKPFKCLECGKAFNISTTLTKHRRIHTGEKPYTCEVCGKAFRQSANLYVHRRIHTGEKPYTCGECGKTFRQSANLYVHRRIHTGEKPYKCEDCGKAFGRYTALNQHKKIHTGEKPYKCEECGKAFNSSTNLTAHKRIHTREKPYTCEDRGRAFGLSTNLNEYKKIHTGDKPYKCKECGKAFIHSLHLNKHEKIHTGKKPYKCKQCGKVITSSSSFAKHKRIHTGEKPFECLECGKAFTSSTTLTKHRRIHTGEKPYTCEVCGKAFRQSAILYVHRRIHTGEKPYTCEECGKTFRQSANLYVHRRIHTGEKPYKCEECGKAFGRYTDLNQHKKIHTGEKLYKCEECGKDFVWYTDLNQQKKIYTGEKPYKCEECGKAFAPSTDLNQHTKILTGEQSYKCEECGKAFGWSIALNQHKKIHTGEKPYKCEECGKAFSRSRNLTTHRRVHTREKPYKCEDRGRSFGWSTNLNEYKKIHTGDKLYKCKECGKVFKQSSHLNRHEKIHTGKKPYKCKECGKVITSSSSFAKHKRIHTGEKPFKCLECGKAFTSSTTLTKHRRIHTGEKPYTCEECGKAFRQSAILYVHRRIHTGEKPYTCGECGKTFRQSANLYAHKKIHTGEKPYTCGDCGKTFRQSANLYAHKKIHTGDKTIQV
Exercise: state measured binding signal for each of the sequences provided.
Express it in relative 10-mer count; write the number only.

Please give the measured binding signal for this sequence: `CCCCCCTCCA`
0.13

How about `CCCCCACCAC` ?
0.312

How about `CCCTCCGCCC` ?
0.192

How about `ACCCTCCACC` ?
0.127

How about `CGCCCCCACC` ?
0.19

How about `CACCGCCCCA` ?
0.107

How about `CCCTCACCAC` ?
0.104

How about `AAAAAGCGTC` ?
0.108

How about `AAAACAGCGT` ?
0.759

How about `CAGCATCTCC` ?
0.126

How about `AGAGTACCCA` ?
0.112

How about `CCCACACCAC` ?
0.137

How about `CCCCGCCCGC` ?
0.115

How about `AAAAAGCAGT` ?
0.497

How about `CCACCACCGC` ?
0.11

How about `CCAAAAACAG` ?
0.108

How about `AAACACTGCT` ?
0.109

How about `AAACAGTGTT` ?
0.338

How about `AAAAGCTATC` ?
0.233

How about `GGGTGGGGGA` ?
0.208

How about `CCCCCCCACC` ?
0.358

How about `GGGGGGTGGA` ?
0.145

How about `AAAAGCTGCA` ?
0.114

How about `CCACCCTCAC` ?
0.103

How about `CCCACCCCCC` ?
0.427

How about `AAAACAGGGG` ?
0.112

How about `CCCGCCCGCC` ?
0.128

How about `CCCCACACCC` ?
0.274

How about `AACAAACAGC` ?
0.119

How about `CGCACCCCCC` ?
0.118

How about `TAAAAAAACA` ?
0.162

How about `AAACAGAGTA` ?
0.198

How about `GAAAACAGCA` ?
0.299

How about `CCCGCTCCCC` ?
0.13

How about `CCACCCCCAA` ?
0.118

How about `ATGGGTGGGG` ?
0.109

How about `AAAACAGCGC` ?
0.17

How about `ATACACTTCA` ?
0.245

How about `CCTCCCCCAC` ?
0.216

How about `CACCACCCTC` ?
0.111

How about `TAAAAAAAAA` ?
0.115

How about `AAGCTGCACC` ?
0.143

How about `CCTCCCCACC` ?
0.255

====

target: ZNF721 DBD1 (Homo sapiens, UniProt Q8TF20-2 29-461); experiment: HT-SELEX; 20 mM HEPES pH 7, 140 mM KCl, 5 mM NaCl, 1 mM K2HPO4, 2 mM MgSO4, 100 uM EGTA, ZnSO4, 0.1% Tween20; room temperature, 1 h; high values mean tight binding; conditions: protein: ivt; tags: eGFP (N-terminal); dsDNA, one strand shown
Sequence (Q8TF20 17-449): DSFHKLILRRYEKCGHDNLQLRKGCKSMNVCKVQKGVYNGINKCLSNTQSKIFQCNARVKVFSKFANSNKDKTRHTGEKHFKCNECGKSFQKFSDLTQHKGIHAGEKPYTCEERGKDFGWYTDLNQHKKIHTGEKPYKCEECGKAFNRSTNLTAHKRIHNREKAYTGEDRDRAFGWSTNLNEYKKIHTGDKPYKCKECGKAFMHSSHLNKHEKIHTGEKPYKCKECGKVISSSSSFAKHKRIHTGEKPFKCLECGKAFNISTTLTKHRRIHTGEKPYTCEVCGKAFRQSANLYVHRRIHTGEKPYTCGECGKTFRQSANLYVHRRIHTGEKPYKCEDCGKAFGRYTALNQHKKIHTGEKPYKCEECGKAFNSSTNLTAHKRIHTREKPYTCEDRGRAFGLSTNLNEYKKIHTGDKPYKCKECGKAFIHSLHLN
reported.endpoint: binding signal (relative 10-mer count)
Express it in relative 10-mer count; write the number only.

Under ZNF721 DBD1 (Homo sapiens, UniProt Q8TF20-2 29-461): binding signal value of `AAAGCAGCGT` ?
0.00115

How about `ATCCCCACCC` ?
0.00459

How about `CGCCCCGCCC` ?
0.00555

How about `CCCACCCTAC` ?
0.00748

How about `AAAACAAGCA` ?
0.00638

How about `CCCCGCCCCC` ?
0.0122

How about `CCCCCACCTC` ?
0.00945

How about `CAAAAAAACA` ?
0.00349

How about `AGGGGGTGGG` ?
0.0107

How about `ATAGCTTCAT` ?
0.158

How about `CCCCCGGCCC` ?
0.00394

How about `AAAGCTATAC` ?
0.0924

How about `CCGCCACCAC` ?
0.00417

How about `CTCCCTCCCC` ?
0.00927

How about `CTCCCACCAC` ?
0.00752

How about `CCCACCCCTA` ?
0.00431

How about `ATGTATGAAG` ?
0.279

How about `CCCTACCCCC` ?
0.0083

How about `AGTATGAAGC` ?
0.232

How about `AACAAGCAGC` ?
0.0039

How about `CAACCCACCC` ?
0.00532

How about `CCCCACGCCC` ?
0.00853

How about `GCTTTTTTTA` ?
0.0317

How about `CGAAAAAAAG` ?
0.0289

How about `CATACCCAAA` ?
0.00583

How about `CCCCGCCCCA` ?
0.0067

How about `ACCCCACCCT` ?
0.005

How about `GCTTCTTTCC` ?
0.0866

How about `AAAAAAAAAG` ?
0.0474

How about `ACCCACCCCA` ?
0.00798

How about `CCACCAACCC` ?
0.0067

How about `CCCTCCTCCC` ?
0.00927

How about `CCCCCCCACA` ?
0.00491

How about `CAACAAAGCA` ?
0.00101

How about `GGGGAGGGGA` ?
0.00674

How about `CCCACCACCA` ?
0.00784

How about `AGTGTATCCA` ?
0.11

How about `CTTTTTTTTC` ?
0.0293

How about `AGCCCCACCC` ?
0.00312

How about `ACAGCGTTAC` ?
0.00105

How about `GGTGGGGGGA` ?
0.00904

How about `AGGGTGGGGG` ?
0.0102

How about `AAAAAAAGGT` ?
0.00583
